Target: T1, recombinant human CD30 extra cellular domain (ECD) protein (human, UniProt P28908 19-379)
T1 construct: Bought from R&D systems; also called rhCD30; human CD30 ECD
T1 sequence: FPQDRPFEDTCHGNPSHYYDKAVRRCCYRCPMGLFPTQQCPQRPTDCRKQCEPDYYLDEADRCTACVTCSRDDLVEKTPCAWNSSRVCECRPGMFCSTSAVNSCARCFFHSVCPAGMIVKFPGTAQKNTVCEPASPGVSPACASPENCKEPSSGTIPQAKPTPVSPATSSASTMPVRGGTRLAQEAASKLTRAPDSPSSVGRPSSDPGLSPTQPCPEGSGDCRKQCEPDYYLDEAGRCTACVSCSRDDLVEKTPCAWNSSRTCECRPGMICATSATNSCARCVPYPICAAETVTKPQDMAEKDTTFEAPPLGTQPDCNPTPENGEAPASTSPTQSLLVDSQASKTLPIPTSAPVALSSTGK
Assay: SPR Biacore T200, His-tagged sdAb/Fab captured, 100.0 nM human CD30 as analyte, single curve
measureName: kon (M⁻¹ s⁻¹)

Solved cases (2 shown):
binder	kon / M⁻¹ s⁻¹
AS53445 sdAb (VHH, Camel sdAb) VHH: QVQLVESGGGSVQAGGSLRLSCTASGYIFCMGWFRQAPGKAREGIATIYTGGDSTYYDDSVKGRFTISRDNAKNTVYLQMNSLKPEDTAMYYCAAGGQECYLTNWVSYWGQGTQVTVSS	110000
AS57765 human Fab (Fab, V domains shown, Human Fab from a synthetic human Fab library, crude protein from E. coli with 6xHistidine tag) VH: EVQLVESGGGLVQPGGSLRLSCAASGFNIYYSYMHWVRQAPGKGLEWVAYIYPYSGSTSYADSVKGRFTISADTSKNTAYLQMNSLRAEDTAVYYCARPAVHWHGYGGGYYYGLDYWGQGTLVTVSS VL: DIQMTQSPSSLSASVGDRVTITCRASQSVSSAVAWYQQKPGKAPKLLIYSASSLYSGVPSRFSGSRSGTDFTLTISSLQPEDFATYYCQQAYYSLITFGQGTKVEIK	98000

[1] AS48508 sdAb (VHH, Camel sdAb) VHH: EVQLVESGGGSVQAGGSLRLSCTASRFTFDGPDMAWYRQAPGNACELVSIISADGRTYYTDSVKGRFTISRDNAKNTVFLYLNSLQPEDTAVYYCAPDPRRNCRGGYCCGNWGPGTQVTVSS
[2] AS48433 sdAb (VHH, Camel sdAb) VHH: QIQLVESGGGSVQAGETLRLSCTASGSTFGDSDMGWYRQAPGNACELVSIISSDGRTYYVDSVKGRFTISQDNAVSTVYLQMNSLNPEDTGVYYCAADLRLNCRDGRCCGYWGQGTQVTVSS
For the pair 1 and 2 , which entry has the numerically smaller recorded kon? Use the label to indicate which entry you chose.
2
(2: 93000 M⁻¹ s⁻¹, 1: 200000 M⁻¹ s⁻¹)
